Reference source for all entries: ChEMBL document CHEMBL5291721

- Assay system: Adenosine receptor A1 (Homo sapiens); note: assay procedure not described here
- Sequence (P30542 whole entry): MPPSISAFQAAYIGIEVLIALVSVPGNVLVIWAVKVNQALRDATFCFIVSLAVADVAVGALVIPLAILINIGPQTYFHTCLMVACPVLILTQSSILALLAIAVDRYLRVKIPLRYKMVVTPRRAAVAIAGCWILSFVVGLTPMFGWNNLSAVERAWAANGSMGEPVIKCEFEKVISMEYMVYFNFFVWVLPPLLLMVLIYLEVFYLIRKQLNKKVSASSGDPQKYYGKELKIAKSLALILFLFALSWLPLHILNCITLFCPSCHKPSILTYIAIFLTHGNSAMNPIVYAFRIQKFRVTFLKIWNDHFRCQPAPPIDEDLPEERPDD
Endpoint label: AC50

Compound	Assay system	AC50
C[C@](N)(Cc1ccc(O)c(O)c1)C(=O)O [METHYLDOPA]	Adenosine receptor A1 (Homo sapiens)	> 30 µM
CCOC(=O)[N-]c1cn(N2CCOCC2)n[o+]1 [MOLSIDOMINE]	Adenosine receptor A1 (Homo sapiens)	> 30 µM
O=C(NCCNCC(O)COc1ccc(O)cc1)N1CCOCC1 (centres undefined) [XAMOTEROL]	Adenosine receptor A1 (Homo sapiens)	> 30 µM

Known value: Adenosine receptor A1 (Homo sapiens) AC50 of the compound N[C@@H]1[C@H]2CN(c3nc4c(cc3F)c(=O)c(C(=O)O)cn4-c3ccc(F)cc3F)C[C@@H]12 [TROVAFLOXACIN] equals > 30 µM

Known value: Adenosine receptor A1 (Homo sapiens) AC50 of the compound COc1ccccc1OCCNCC(O)c1ccc(C)c(S(N)(=O)=O)c1 (centres undefined) [AMOSULALOL] equals > 30 µM

Known value: Adenosine receptor A1 (Homo sapiens) AC50 of the compound Cc1cccc(C(C)c2cnc[nH]2)c1C (centres undefined) [MEDETOMIDINE] equals > 30 µM

Known value: Adenosine receptor A1 (Homo sapiens) AC50 of the compound "COc1ccccc1N1CCN(CCCNc2cc(=O)n(C)c(=O)n2C)CC1" equals > 30 µM

Known value: Adenosine receptor A1 (Homo sapiens) AC50 of the compound C#C[C@]1(O)CC[C@H]2[C@@H]3CCC4=Cc5oncc5C[C@]4(C)[C@H]3CC[C@@]21C [DANAZOL] equals > 30 µM

Known value: Adenosine receptor A1 (Homo sapiens) AC50 of the compound COc1ccccc1OCC(O)CN1CCN(CC(=O)Nc2c(C)cccc2C)CC1 (centres undefined) [RANOLAZINE] equals > 30 µM

Known value: Adenosine receptor A1 (Homo sapiens) AC50 of the compound c1cnc(N2CCN(Cc3ccc4c(c3)OCO4)CC2)nc1 [PIRIBEDIL] equals > 30 µM

Known value: Adenosine receptor A1 (Homo sapiens) AC50 of the compound CCC(C(=O)O)c1ccc(N2Cc3ccccc3C2=O)cc1 (centres undefined) [INDOBUFEN] equals > 30 µM

Known value: Adenosine receptor A1 (Homo sapiens) AC50 of the compound CO[C@H]1C[C@@H]2CC[C@@H](C)[C@@](O)(O2)C(=O)C(=O)N2CCCC[C@H]2C(=O)O[C@H]([C@H](C)C[C@@H]2CC[C@@H](O)[C@H](OC)C2)CC(=O)[C@H](C)/C=C(\C)[C@@H](O)[C@@H](OC)C(=O)[C@H](C)C[C@H](C)/C=C/C=C/C=C/1C [SIROLIMUS] equals > 30 µM

Known value: Adenosine receptor A1 (Homo sapiens) AC50 of the compound CC1(C)O[C@@H]2C[C@H]3[C@@H]4CCC5=CC(=O)C=C[C@]5(C)[C@H]4[C@@H](O)C[C@]3(C)[C@]2(C(=O)CO)O1 [DESONIDE] equals > 10 µM

Known value: Adenosine receptor A1 (Homo sapiens) AC50 of the compound COCCCN1CCC(NC(=O)c2cc(Cl)c(N)c3c2OCC3)CC1 [PRUCALOPRIDE] equals > 30 µM

* * *

- Assay system: 3',5'-cyclic-AMP phosphodiesterase 4D (Homo sapiens, UniProt Q08499); note: assay procedure not described here
- Sequence (Q08499 whole entry): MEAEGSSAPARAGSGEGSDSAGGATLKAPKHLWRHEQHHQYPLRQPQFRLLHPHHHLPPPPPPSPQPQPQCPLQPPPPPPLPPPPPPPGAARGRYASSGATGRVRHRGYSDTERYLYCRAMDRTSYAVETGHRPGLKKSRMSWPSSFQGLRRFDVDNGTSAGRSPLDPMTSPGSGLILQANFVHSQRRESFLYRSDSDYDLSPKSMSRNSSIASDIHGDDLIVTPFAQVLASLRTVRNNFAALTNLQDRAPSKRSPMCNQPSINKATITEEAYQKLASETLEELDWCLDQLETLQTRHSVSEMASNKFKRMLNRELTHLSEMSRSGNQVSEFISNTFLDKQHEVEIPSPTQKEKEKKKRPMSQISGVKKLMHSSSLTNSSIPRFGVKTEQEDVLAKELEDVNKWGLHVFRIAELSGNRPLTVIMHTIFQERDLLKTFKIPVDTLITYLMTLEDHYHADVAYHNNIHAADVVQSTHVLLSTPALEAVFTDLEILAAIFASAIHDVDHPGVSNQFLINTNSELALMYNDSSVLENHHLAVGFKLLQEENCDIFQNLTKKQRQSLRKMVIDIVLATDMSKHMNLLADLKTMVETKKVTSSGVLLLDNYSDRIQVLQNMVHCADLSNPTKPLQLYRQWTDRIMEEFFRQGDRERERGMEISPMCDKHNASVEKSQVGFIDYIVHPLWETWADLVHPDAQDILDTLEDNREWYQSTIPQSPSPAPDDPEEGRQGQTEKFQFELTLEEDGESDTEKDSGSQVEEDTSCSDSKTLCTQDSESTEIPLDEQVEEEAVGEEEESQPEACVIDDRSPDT
- Type: functional
Endpoint label: AC50

Consider the following illustrative entries.
Molecule	Assay system	Assay result
CNC(=O)c1ccccc1Sc1ccc2c(/C=C/c3ccccn3)n[nH]c2c1	3',5'-cyclic-AMP phosphodiesterase 4D (Homo sapiens, UniProt Q08499)	> 30 µM
CN(C)CCC(c1ccc(Cl)cc1)c1ccccn1 (stereo not drawn)	3',5'-cyclic-AMP phosphodiesterase 4D (Homo sapiens, UniProt Q08499)	> 10 µM

Switching to the query record.
Known value: 3',5'-cyclic-AMP phosphodiesterase 4D (Homo sapiens, UniProt Q08499) AC50 of the molecule "CCCc1nc(C(C)(C)O)c(C(=O)OCc2oc(=O)oc2C)n1Cc1ccc(-c2ccccc2-c2nnn[nH]2)cc1" equals 3.9 µM

* * *

For reference, AC50 measured on Beta-3 adrenergic receptor (Homo sapiens, UniProt P13945):

Consider the following illustrative entries.
Compound	AC50
Clc1ccccc1C(c1ccccc1)(c1ccccc1)n1ccnc1	8.78 µM
Cc1cn([C@H]2C[C@H](N=[N+]=[N-])[C@@H](CO)O2)c(=O)[nH]c1=O	> 30 µM
CNS(=O)(=O)Cc1ccc2[nH]cc(CCN(C)C)c2c1	> 30 µM

Known value: Beta-3 adrenergic receptor (Homo sapiens, UniProt P13945) AC50 of the compound "CC[C@H]1OC(=O)[C@H](C)[C@@H](O[C@H]2C[C@@](C)(OC)[C@@H](O)[C@H](C)O2)[C@H](C)[C@@H](O[C@@H]2O[C@H](C)C[C@H](N(C)C)[C@H]2O)[C@](C)(O)C[C@@H](C)CN(C)[C@H](C)[C@@H](O)[C@]1(C)O" equals > 30 µM

Known value: Beta-3 adrenergic receptor (Homo sapiens, UniProt P13945) AC50 of the compound "Cc1ccc(-c2cc(C(F)(F)F)nn2-c2ccc(S(N)(=O)=O)cc2)cc1" equals 5.2 µM

Known value: Beta-3 adrenergic receptor (Homo sapiens, UniProt P13945) AC50 of the compound NCC(CC(=O)O)c1ccc(Cl)cc1 (configuration not stated) equals > 30 µM

Known value: Beta-3 adrenergic receptor (Homo sapiens, UniProt P13945) AC50 of the compound C[C@]12CCC(=O)C=C1CC[C@@H]1[C@@H]2[C@@H](O)C[C@@]2(C)[C@H]1CC[C@]2(O)C(=O)CO [HYDROCORTISONE] equals > 30 µM

* * *

- Assay system: 5-hydroxytryptamine receptor 2B (Homo sapiens); note: assay procedure not described here
- Sequence (P41595 whole entry): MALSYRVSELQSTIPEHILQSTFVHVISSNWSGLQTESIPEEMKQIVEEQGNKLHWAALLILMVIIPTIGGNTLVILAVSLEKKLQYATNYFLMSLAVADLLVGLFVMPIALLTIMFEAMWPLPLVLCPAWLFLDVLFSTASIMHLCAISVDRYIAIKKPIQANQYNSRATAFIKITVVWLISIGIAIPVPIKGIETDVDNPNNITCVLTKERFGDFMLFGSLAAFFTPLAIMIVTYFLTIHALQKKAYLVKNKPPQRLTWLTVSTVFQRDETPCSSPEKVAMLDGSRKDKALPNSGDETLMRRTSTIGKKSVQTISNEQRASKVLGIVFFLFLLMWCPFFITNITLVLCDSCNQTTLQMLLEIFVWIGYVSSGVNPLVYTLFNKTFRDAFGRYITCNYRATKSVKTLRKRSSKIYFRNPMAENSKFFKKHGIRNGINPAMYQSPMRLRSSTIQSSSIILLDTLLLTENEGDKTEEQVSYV
- Format: functional, cell-based
Entries and their measured AC50 follow.

AC50 for CN1C(=O)C(O)N=C(c2ccccc2Cl)c2cc(Cl)ccc21 (stereo not drawn) is > 30 µM

AC50 for "CO[C@H]1C[C@@H]2CC[C@@H](C)[C@@](O)(O2)C(=O)C(=O)N2CCCC[C@H]2C(=O)O[C@H]([C@H](C)C[C@@H]2CC[C@@H](O)[C@H](OC)C2)CC(=O)[C@H](C)/C=C(\C)[C@@H](O)[C@@H](OC)C(=O)[C@H](C)C[C@H](C)/C=C/C=C/C=C/1C" is > 10 µM

AC50 for "CN1C(C(=O)Nc2ccccn2)=C(O)c2sc(Cl)cc2S1(=O)=O" is > 10 µM

AC50 for CC(Oc1c(Cl)cccc1Cl)C1=NCCN1 (stereo not drawn) is > 30 µM

AC50 for OC(CNCC(O)C1CCc2cc(F)ccc2O1)C1CCc2cc(F)ccc2O1 (stereo not drawn) is 8.8 µM

AC50 for "CC(C)C[C@H]1C(=O)N2CCC[C@H]2[C@]2(O)O[C@](NC(=O)[C@@H]3C=C4c5cccc6[nH]c(Br)c(c56)C[C@H]4N(C)C3)(C(C)C)C(=O)N12" is 0.538 µM

* * *

For reference, AC50 measured on 5-hydroxytryptamine receptor 1A (Homo sapiens, UniProt P08908):

Compound	Assay result
CO[C@H]1C[C@@H]2CC[C@@H](C)[C@@](O)(O2)C(=O)C(=O)N2CCCC[C@H]2C(=O)O[C@H]([C@H](C)C[C@@H]2CC[C@@H](O)[C@H](OC)C2)CC(=O)[C@H](C)/C=C(\C)[C@@H](O)[C@@H](OC)C(=O)[C@H](C)C[C@H](C)/C=C/C=C/C=C/1C	> 10 µM

Known value: 5-hydroxytryptamine receptor 1A (Homo sapiens, UniProt P08908) AC50 of the compound "Clc1ccc2nsnc2c1NC1=NCCN1" equals > 10 µM

Known value: 5-hydroxytryptamine receptor 1A (Homo sapiens, UniProt P08908) AC50 of the compound CC(=O)O[C@H]1CC[C@@]2(C)C(=CC[C@@H]3[C@@H]2CC[C@]2(C)C(c4cccnc4)=CC[C@@H]32)C1 [ABIRATERONE ACETATE] equals > 10 µM

Known value: 5-hydroxytryptamine receptor 1A (Homo sapiens, UniProt P08908) AC50 of the compound "O=[N+]([O-])c1cn2c(n1)OC[C@@H](OCc1ccc(OC(F)(F)F)cc1)C2" equals > 10 µM

* * *

For reference, AC50 measured on Cannabinoid receptor 1 (Homo sapiens, UniProt P21554):

Known value: Cannabinoid receptor 1 (Homo sapiens, UniProt P21554) AC50 of the compound C[C@@H](O)[C@H]1C(=O)N2C(C(=O)O)=C(S[C@@H]3CN[C@H](C(=O)N(C)C)C3)[C@H](C)[C@H]12 [MEROPENEM] equals > 10 µM

Known value: Cannabinoid receptor 1 (Homo sapiens, UniProt P21554) AC50 of the compound CO[C@H]1C[C@@H]2CC[C@@H](C)[C@@](O)(O2)C(=O)C(=O)N2CCCC[C@H]2C(=O)O[C@H]([C@H](C)C[C@@H]2CC[C@@H](O)[C@H](OC)C2)CC(=O)[C@H](C)/C=C(\C)[C@@H](O)[C@@H](OC)C(=O)[C@H](C)C[C@H](C)/C=C/C=C/C=C/1C [SIROLIMUS] equals > 10 µM

Known value: Cannabinoid receptor 1 (Homo sapiens, UniProt P21554) AC50 of the compound COc1cccc(C2(O)CCCCC2CN(C)C)c1 (configuration not stated) [TRAMADOL] equals > 10 µM

Known value: Cannabinoid receptor 1 (Homo sapiens, UniProt P21554) AC50 of the compound Clc1ccc2nsnc2c1NC1=NCCN1 [TIZANIDINE] equals > 10 µM

Known value: Cannabinoid receptor 1 (Homo sapiens, UniProt P21554) AC50 of the compound CC(C)=CCC/C(C)=C/C=C/C(C)=C/C=C/C(C)=C/C=C/C=C(C)/C=C/C=C(C)/C=C/C=C(\C)CCC=C(C)C [LYCOPENE] equals > 30 µM

Known value: Cannabinoid receptor 1 (Homo sapiens, UniProt P21554) AC50 of the compound CC(C)Cn1cnc2c(N)nc3ccccc3c21 [IMIQUIMOD] equals > 10 µM

Known value: Cannabinoid receptor 1 (Homo sapiens, UniProt P21554) AC50 of the compound "CC=CC(=O)N(CC)c1ccccc1C" equals > 10 µM

Known value: Cannabinoid receptor 1 (Homo sapiens, UniProt P21554) AC50 of the compound Cc1ccc(-c2cc(C(F)(F)F)nn2-c2ccc(S(N)(=O)=O)cc2)cc1 [CELECOXIB] equals > 10 µM

Known value: Cannabinoid receptor 1 (Homo sapiens, UniProt P21554) AC50 of the compound CCCC(C)C1(CC)C(=O)NC(=O)NC1=O (configuration not stated) [PENTOBARBITAL] equals > 10 µM

Known value: Cannabinoid receptor 1 (Homo sapiens, UniProt P21554) AC50 of the compound CCOc1ccccc1OCC1CNCCO1 (configuration not stated) [VILOXAZINE] equals > 10 µM

Known value: Cannabinoid receptor 1 (Homo sapiens, UniProt P21554) AC50 of the compound CN1CCC(=C2c3ccccc3CCc3sccc32)CC1 [PIZOTYLINE] equals 1.66 µM
